# target.or.system: AChE (acetylcholinesterase) (Homo sapiens, UniProt P22303)
# Construct: recombinant, produced in stably expressing CHO-K1 cell line
# Sequence (P22303 32-614): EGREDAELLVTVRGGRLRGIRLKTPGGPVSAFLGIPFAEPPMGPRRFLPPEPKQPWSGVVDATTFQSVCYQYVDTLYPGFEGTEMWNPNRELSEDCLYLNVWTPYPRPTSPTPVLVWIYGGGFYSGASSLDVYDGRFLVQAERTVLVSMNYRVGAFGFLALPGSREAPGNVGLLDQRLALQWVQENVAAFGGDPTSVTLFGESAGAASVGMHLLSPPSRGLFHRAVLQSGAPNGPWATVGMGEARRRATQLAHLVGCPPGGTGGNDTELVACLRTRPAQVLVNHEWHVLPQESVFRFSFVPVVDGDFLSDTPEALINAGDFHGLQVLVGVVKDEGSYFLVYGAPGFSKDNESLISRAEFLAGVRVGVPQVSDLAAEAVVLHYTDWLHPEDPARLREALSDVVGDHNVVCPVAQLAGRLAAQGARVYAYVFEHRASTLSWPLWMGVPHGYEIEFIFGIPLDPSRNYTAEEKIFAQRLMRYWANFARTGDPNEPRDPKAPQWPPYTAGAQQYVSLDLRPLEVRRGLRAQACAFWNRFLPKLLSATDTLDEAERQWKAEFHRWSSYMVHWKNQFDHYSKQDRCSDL
# run.description: Ellman assay, absorbance at […] nm, 7-point dose response
endpoint.label: IC50 (µM)

>>> measured("Cn1c(=O)c(N2CCCC(C(=O)NC3CCN(Cc4ccccc4)CC3)C2)nc2ccccc21 (stereo not shown) [compound 3, F681-0412]")
6.7
>>> measured("Cc1ccc(Cn2c(=O)c(N3CCC(C(=O)NCCN4CCCCC4C)CC3)nc3ccccc32)cc1 (stereo not shown) [compound 1, C700-2595]")
8.2
>>> measured("CCn1c(=O)c(N2CCCC(C(=O)NC3CCN(Cc4ccccc4)CC3)C2)nc2ccccc21 (stereo not shown) [compound 2, F681-0222]")
4.4
>>> measured("CCN1CCCC1CNC(=O)CCc1nnc2n(CCc3ccccc3)c(=O)c3ccccc3n12 (stereo not shown) [compound 4, C741-0335]")
9.7
